The entries that follow carry pIC50 values tested on UniProt:Q13315, drawn from several published reports.
Sequence (Q13315 whole entry): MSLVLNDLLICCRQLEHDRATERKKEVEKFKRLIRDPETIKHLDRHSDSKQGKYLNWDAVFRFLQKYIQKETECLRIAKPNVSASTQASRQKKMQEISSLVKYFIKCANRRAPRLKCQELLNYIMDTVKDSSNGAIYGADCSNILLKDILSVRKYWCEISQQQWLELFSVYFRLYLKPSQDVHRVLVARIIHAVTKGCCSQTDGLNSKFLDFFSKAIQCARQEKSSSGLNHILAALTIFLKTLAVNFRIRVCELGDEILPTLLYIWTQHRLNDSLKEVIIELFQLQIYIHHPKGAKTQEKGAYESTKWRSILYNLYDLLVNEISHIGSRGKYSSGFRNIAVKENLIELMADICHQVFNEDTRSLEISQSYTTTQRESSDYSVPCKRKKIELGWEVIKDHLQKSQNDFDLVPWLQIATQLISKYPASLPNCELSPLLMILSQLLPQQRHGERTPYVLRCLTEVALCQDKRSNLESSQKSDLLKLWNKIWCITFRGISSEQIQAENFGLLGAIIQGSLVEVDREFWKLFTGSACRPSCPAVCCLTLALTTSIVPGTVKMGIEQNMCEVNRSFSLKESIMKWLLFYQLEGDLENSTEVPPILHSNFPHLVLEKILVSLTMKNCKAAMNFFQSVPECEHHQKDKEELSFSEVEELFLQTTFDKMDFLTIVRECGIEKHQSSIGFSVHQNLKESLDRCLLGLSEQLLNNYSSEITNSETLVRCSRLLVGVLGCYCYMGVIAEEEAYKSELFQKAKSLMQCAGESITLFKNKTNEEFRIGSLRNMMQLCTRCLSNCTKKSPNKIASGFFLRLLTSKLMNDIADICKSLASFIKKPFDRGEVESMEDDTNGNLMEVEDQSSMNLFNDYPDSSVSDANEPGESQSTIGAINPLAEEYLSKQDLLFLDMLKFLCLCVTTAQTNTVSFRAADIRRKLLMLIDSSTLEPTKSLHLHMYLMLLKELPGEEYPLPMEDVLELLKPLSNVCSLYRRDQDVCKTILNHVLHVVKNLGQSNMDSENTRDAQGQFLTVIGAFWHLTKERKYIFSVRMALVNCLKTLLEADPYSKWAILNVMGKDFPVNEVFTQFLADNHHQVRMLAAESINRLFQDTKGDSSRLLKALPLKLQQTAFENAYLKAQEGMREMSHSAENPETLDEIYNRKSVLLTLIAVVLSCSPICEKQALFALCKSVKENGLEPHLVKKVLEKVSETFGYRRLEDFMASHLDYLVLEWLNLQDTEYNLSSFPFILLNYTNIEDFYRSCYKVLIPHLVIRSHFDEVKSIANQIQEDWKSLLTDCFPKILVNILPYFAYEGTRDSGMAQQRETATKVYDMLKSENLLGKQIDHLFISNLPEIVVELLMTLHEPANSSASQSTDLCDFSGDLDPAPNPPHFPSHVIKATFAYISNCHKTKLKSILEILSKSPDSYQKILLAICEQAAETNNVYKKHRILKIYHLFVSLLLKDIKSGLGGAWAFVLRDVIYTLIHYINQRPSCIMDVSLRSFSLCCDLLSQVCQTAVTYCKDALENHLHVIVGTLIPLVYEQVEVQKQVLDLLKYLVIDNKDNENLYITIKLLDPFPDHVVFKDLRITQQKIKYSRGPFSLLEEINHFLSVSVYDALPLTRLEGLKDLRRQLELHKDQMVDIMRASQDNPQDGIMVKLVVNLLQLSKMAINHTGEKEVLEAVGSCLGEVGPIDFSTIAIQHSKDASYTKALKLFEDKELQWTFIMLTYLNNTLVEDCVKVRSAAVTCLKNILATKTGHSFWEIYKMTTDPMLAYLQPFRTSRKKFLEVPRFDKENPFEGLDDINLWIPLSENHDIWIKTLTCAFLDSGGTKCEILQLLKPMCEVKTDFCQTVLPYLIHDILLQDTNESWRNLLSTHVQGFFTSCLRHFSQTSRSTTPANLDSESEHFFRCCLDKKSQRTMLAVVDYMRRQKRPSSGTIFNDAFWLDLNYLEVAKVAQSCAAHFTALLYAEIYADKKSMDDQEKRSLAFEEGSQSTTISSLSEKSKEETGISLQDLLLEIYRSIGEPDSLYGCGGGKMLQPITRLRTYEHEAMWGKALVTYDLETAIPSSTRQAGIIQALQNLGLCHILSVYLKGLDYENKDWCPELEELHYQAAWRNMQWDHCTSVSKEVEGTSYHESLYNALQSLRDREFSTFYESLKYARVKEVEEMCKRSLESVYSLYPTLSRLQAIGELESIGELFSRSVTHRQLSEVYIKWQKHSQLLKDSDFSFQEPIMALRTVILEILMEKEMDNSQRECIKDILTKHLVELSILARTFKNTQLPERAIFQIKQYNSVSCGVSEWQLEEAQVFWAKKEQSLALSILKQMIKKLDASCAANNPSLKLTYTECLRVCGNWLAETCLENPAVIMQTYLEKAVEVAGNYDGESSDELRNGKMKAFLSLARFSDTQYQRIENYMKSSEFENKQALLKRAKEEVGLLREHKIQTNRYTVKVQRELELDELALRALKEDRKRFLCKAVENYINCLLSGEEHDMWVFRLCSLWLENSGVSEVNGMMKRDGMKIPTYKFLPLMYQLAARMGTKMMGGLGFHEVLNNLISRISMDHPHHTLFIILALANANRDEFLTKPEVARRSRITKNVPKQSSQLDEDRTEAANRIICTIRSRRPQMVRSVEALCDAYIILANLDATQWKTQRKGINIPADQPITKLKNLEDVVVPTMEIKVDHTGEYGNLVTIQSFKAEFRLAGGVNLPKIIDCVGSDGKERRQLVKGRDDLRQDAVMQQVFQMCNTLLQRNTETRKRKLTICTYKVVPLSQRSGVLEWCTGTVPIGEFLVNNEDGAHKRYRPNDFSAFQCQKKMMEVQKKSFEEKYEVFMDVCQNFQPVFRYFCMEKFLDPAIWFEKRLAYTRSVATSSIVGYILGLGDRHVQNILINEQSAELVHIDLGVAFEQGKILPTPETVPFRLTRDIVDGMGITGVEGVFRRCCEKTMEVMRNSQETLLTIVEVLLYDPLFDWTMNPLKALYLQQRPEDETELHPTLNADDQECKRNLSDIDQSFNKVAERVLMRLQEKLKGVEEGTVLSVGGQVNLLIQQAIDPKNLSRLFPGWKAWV
A value of pIC50 is the negative decimal logarithm of a concentration given in moles per litre.

Examples from the recorded data:
Req: Give the reported pIC50 for C[C@@H]1Cn2ncc(C3CCN(S(C)(=O)=O)CC3)c2CN1c1ccnc2[nH]ccc12 (system: UniProt:Q13315).
Resp: 4.85

Req: Report pIC50 for CC[C@H](c1ccccc1)n1nnc2cnc3ccc(-c4ccc(N)nc4)cc3c21 tested on UniProt:Q13315.
Resp: 8.05

Req: Provide the documented pIC50 with UniProt:Q13315 as the system for C[C@H](c1ccccc1)n1nnc2cnc3ccc(-c4ccc(F)nc4)cc3c21
Resp: 7.24

Req: # value lookup — system UniProt:Q13315, readout pIC50, item CNCCCOc1ccc(-c2ccc3ncc4nnn([C@H](C)c5ccccc5)c4c3c2)cn1
Resp: 6.78

Req: // lookup pIC50 | system=UniProt:Q13315 | key= C[C@@H]1COCCN1c1nc(-c2cccc3[nH]ccc23)nc2c1CN(C(=O)c1ccc3c(c1)OCO3)C2(C)C
Resp: 6.29

Req: # query: pIC50 | item CC(C)n1nnc2cnc3ccc(-c4ccc(N)nc4)cc3c21 | system: UniProt:Q13315
Resp: 7.70

Further cases:
Req: # value lookup — system UniProt:Q13315, readout pIC50, item CC(=O)Nc1ccc(-c2ccc3ncc4nnn([C@H](C)c5ccccc5)c4c3c2)cn1
Resp: 7.89

Req: Param readout = pIC50; param system = UniProt:Q13315; param query = C[C@H](c1ccccc1)n1nnc2cnc3ccc(-c4ccc(OCCCN5CCN(C)CC5)nc4)cc3c21 ; response: value
Resp: 8.70

Req: Request - read-out pIC50 | tested on UniProt:Q13315 | molecule C[C@H](c1ccccc1)n1nnc2cnc3ccc(-c4cnc(N)nc4)cc3c21
Resp: 7.82

Req: Short answer please: pIC50, UniProt:Q13315, entry C[C@@H]1COCCN1c1nc(-c2cccc3[nH]ccc23)nc2c1CN(C(=O)c1cccc(S(C)(=O)=O)c1)C2(C)C
Resp: 6.00

Req: // lookup pIC50 | system=UniProt:Q13315 | key= C[C@@H]1COCCN1c1nc(-c2nncc3[nH]ccc23)cc2c1ncn2C
Resp: 4.82

Req: Give recorded pIC50 with UniProt:Q13315 for the following molecule: C[C@H](c1ccccc1)n1nnc2cnc3ccc(-c4ccc(C(F)(F)F)nc4)cc3c21
Resp: 6.65
